Listing: relative binding ratio (IC50 of the test peptide divided by IC50 of the reference peptide) of selected sequences
molecular target: DRB1*0401 (Homo sapiens, UniProt P01903+P01911, A100K/A169T/F76Y/I96L/K127E/L162R/M171V/N62H/P40V/Q125Y/R42H/S133A/S149N/S66Y/V115G/V209L/W38E); assay: HLA class II peptide-binding assay (competitive ELISA); conditions: immunopurified HLA, reference peptide IC50 8 nM, ratio ≤20 high affinity, 20–200 moderate affinity
measurement-name: relative binding ratio (IC50 of the test peptide divided by IC50 of the reference peptide)

                             input_sequence  assay_value
0  KPVRGVKLVGRDPKNNL [pTL7, Tear lipocalin peptide p108–124]      > 1 260
1  ESILIPRQSETCSPGSD [pTL9, Tear lipocalin peptide p142–158]      > 1 260
2  KPDSVTPMILKAQKGGNL [pC2, Can f 1 peptide p31–48]           72
